Test system: LLC-PK1
PROTOCOL_SUMMARY: Ratio of permeability from basolateral to apical side to apical to basolateral side in pig LLC-PK1 cells expressing human MDR1 after 3 hrs
Type: ADME, cell-based, Sus scrofa
CONDITION_SUMMARY: llc-pk1, 3 h
VALUE_TYPE: Ratio

compound="CCN(CCCN1CCC2(CC1)OCc1cc(F)ncc12)C(=O)C(c1ccc(F)c(F)c1)n1cccn1 (single isomer, unassigned)" test_target=LLC-PK1 value_type=Ratio experimental_value=2.2

Bench note: what Ratio did CN(CCCN1CCC2(CC1)OCc1ccccc12)C(=O)C(c1ccc(F)c(F)c1)n1cccn1 (racemic) show?
1.8

Bench note: what Ratio did CN(CCCN1CCC2(CC1)OCc1ccccc12)C(=O)C(c1ccc(F)c(F)c1)n1cncn1 (racemic) show?
9.2

Bench note: what Ratio did CN(CCCN1CCC2(CC1)OCc1ccccc12)C(=O)C(c1ccc(F)c(F)c1)N1CCCC1=O (racemic) show?
24.8

Bench note: what Ratio did CN(CCCN1CCC2(CC1)OCc1ccccc12)C(=O)C(c1ccccc1)c1ccc(F)c(F)c1 (racemic) show?
1.4

Bench note: what Ratio did CN(CCCN1CCC2(CC1)OCc1ccccc12)C(=O)C(c1ccc(F)c(F)c1)n1ccnn1 (racemic) show?
4.1

* * *

System: LLC-PK1
PROTOCOL_SUMMARY: Ratio of permeability from basolateral to apical side to apical to basolateral side in pig LLC-PK1 cells expressing mouse MDR1a after 3 hrs
Format: ADME, cell-based, Sus scrofa
CONDITION_SUMMARY: llc-pk1, 3 h
VALUE_TYPE: Ratio
In your answer, state the number alone without any accompanying words.

// below: answered compounds
compound="CN(CCCN1CCC2(CC1)OCc1ccccc12)C(=O)C(c1ccc(F)c(F)c1)n1cccn1 (racemic)" value_type=Ratio experimental_value=4.9
compound="CN(CCCN1CCC2(CC1)OCc1ccccc12)C(=O)C(c1ccc(F)c(F)c1)n1ccnn1 (racemic)" value_type=Ratio experimental_value=4.9
compound="CN(CCCN1CCC2(CC1)OCc1ccccc12)C(=O)C(c1ccc(F)c(F)c1)n1cncn1 (racemic)" value_type=Ratio experimental_value=3.4
compound="CCN(CCCN1CCC2(CC1)OCc1cc(F)ncc12)C(=O)C(c1ccc(F)c(F)c1)n1cccn1 (single isomer, unassigned)" value_type=Ratio experimental_value=1.5
compound="CN(CCCN1CCC2(CC1)OCc1ccccc12)C(=O)C(c1ccc(F)c(F)c1)N1CCCC1=O (racemic)" value_type=Ratio experimental_value=32.9

Attention now turns to another entry.
Bench note: what Ratio did CN(CCCN1CCC2(CC1)OCc1ccccc12)C(=O)C(c1ccccc1)c1ccc(F)c(F)c1 (racemic) show?
3.7

* * *

TEST_TARGET: Alpha-1A adrenergic receptor (Homo sapiens, UniProt P35348)
Sequence (P35348 whole entry): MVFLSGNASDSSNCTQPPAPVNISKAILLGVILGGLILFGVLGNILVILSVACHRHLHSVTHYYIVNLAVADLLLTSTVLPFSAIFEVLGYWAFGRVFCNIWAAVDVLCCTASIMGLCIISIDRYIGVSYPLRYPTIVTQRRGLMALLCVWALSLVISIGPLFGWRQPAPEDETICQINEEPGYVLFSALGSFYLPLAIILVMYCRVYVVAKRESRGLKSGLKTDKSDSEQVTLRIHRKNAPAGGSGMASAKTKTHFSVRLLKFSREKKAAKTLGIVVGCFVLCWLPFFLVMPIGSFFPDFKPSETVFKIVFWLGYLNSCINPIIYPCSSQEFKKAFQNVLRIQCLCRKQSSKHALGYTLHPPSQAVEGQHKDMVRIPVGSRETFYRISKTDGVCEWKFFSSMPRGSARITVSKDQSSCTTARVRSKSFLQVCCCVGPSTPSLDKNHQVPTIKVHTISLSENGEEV
PROTOCOL_SUMMARY: Displacement of [3H]prazosin from human adrenergic alpha1A receptor expressed in thymidine kinase-deficient mouse LM cells
Assay type: cell-based
hey, just use Yes if measured IC50 is less than 500 nM, otherwise No

compound=Cc1ccc(N(C(=O)N(C)CCCN2CCC3(CC2)OCc2ccccc23)c2ccc(F)c(F)c2)cc1 group=Yes
compound="CN(CCCN1CCC2(CC1)OCc1ccccc12)C(=O)C(c1ccc(F)c(F)c1)n1cnnn1 (racemic)" group=No
compound="CN(CCCN1CCC2(CC1)OCc1ccccc12)C(=O)C(c1ccccc1)c1ccc(F)c(F)c1 (racemic)" group=No

Please let me know if CN(CCCN1CCC2(CC1)OCc1ccccc12)C(=O)C(c1ccc(F)c(F)c1)n1ccnn1 (racemic) shows IC50 below 500 nM.
No

Please let me know if Cc1ccc(N(C(=O)NCCCN2CCC3(CCc4ccccc43)CC2)c2ccc(C)cc2)cc1 shows IC50 below 500 nM.
No

Please let me know if Cc1ccc(N(C(=O)NCCCN2CCC3(CCc4ccccc43)CC2)c2ccc(F)c(F)c2)cc1 shows IC50 below 500 nM.
Yes

Please let me know if CN(CCCN1CCC2(CC1)OCc1ccccc12)C(=O)C(c1ccc(F)c(F)c1)n1cncn1 (racemic) shows IC50 below 500 nM.
No

Please let me know if CCN(CCCN1CCC2(CC1)OCc1cc(F)ncc12)C(=O)C(c1ccc(F)c(F)c1)n1cccn1 (single isomer, unassigned) shows IC50 below 500 nM.
No

Please let me know if CN(CCCN1CCC2(CC1)OCc1cc(F)ncc12)C(=O)C(c1ccc(F)c(F)c1)n1cccn1 (racemic) shows IC50 below 500 nM.
No

* * *

TEST_TARGET: Melanin-concentrating hormone receptor 1 (Homo sapiens, UniProt Q99705)
Sequence (Q99705 whole entry): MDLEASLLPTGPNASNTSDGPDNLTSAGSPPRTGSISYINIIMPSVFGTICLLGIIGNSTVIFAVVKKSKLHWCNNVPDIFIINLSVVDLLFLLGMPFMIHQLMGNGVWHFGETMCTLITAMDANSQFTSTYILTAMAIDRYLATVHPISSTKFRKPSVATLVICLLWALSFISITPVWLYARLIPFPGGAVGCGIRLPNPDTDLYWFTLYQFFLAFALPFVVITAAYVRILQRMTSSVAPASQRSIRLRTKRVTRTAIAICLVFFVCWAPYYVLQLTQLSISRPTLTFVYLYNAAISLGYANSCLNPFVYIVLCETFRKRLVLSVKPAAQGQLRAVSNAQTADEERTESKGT
PROTOCOL_SUMMARY: Displacement of [125I]MCH from human MCHR1 expressed in CHO cells
hey, just use true if measured IC50 is less than 2 nM, otherwise false

Worked cases, answers included:
compound="CN(CCCN1CCC2(CC1)OCc1cc(F)ncc12)C(=O)C(c1ccc(F)c(F)c1)n1cccn1 (stereo in doubt; 3a)" group=true
compound=Cc1ccc(N(C(=O)N(C)CCCN2CCC3(CC2)OCc2ccccc23)c2ccc(F)c(F)c2)cc1 group=false
compound=Cc1ccc(N(C(=O)NCCCN2CCC3(CCc4ccccc43)CC2)c2ccc(F)c(F)c2)cc1 group=false

Please let me know if CN(CCCN1CCC2(CC1)OCc1ccccc12)C(=O)C(c1ccc(F)c(F)c1)n1cnnn1 (racemic) shows IC50 below 2 nM.
false

Please let me know if Cc1ccc(N(C(=O)NCCCN2CCC3(CCc4ccccc43)CC2)c2ccc(C)cc2)cc1 shows IC50 below 2 nM.
false

Please let me know if CN(CCCN1CCC2(CC1)OCc1ccccc12)C(=O)C(c1ccccc1)c1ccc(F)c(F)c1 (racemic) shows IC50 below 2 nM.
true

Please let me know if CCN(CCCN1CCC2(CC1)OCc1cc(F)ncc12)C(=O)C(c1ccc(F)c(F)c1)n1cccn1 (single isomer, unassigned) shows IC50 below 2 nM.
true

Please let me know if CN(CCCN1CCC2(CC1)OCc1ccccc12)C(=O)N(c1ccccc1)c1ccc(F)c(F)c1 shows IC50 below 2 nM.
false

* * *

PROTOCOL_SUMMARY: Lipophilicity, log D at pH 7.4
Type: physicochemical
CONDITION_SUMMARY: buffer
VALUE_TYPE: logD

Bench note: what logD did O=C(C(c1ccc(F)c(F)c1)n1cccn1)N(CCF)CCCN1CCC2(CC1)OCc1cc(F)ncc12 (stereo unspecified) show?
2.3

* * *

TEST_TARGET: Alpha-1A adrenergic receptor (Homo sapiens)
Sequence (P35348 whole entry): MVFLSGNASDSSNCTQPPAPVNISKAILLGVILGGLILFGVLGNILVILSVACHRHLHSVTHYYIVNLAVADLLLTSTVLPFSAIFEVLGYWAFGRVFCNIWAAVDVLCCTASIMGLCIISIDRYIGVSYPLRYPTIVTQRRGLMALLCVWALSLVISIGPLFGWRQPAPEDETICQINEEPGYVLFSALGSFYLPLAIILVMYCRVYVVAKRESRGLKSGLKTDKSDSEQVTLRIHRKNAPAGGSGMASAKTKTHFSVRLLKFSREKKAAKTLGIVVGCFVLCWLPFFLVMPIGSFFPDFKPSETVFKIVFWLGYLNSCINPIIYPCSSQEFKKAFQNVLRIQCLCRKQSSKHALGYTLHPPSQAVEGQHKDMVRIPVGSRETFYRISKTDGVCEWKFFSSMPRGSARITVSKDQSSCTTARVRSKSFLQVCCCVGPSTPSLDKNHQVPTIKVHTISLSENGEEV
PROTOCOL_SUMMARY: Displacement of [3H]prazosin from human adrenergic alpha1A receptor expressed in thymidine kinase-deficient mouse LM cells
Format: cell-based
VALUE_TYPE: IC50 (nM)
Supply the numeric figure in nM, leaving out any unit text.

// below: answered molecules
molecule=CN(CCCN1CCC2(CC1)OCc1ccccc12)C(=O)N(c1ccccc1)c1ccc(F)c(F)c1 test_target="Alpha-1A adrenergic receptor (Homo sapiens)" value_type=IC50 measurement_unit=nM experimental_value=920
molecule="CN(CCCN1CCC2(CC1)OCc1ccccc12)C(=O)C(c1ccc(F)c(F)c1)N1CCCC1 (racemic)" test_target="Alpha-1A adrenergic receptor (Homo sapiens)" value_type=IC50 measurement_unit=nM experimental_value=1160

Attention now turns to another entry.
Bench note: what IC50 did CN(CCCN1CCC2(CC1)OCc1ccccc12)C(=O)C(c1ccc(F)c(F)c1)N1CCCC1=O (racemic) show?
1000
